Target: D-1 receptor
Assay: D-1 antagonist activity in adenylate cyclase assay (antagonism of dopamine-induced increase in cAMP)
Conditions: 10 μM dopamine; goldfish retina or rat striatum homogenate
Counter-ions that a name gives are not always drawn.
Reported Ki by item:
Quantity Name: Ki (µM)

> print(dat)
                                   compound  target.under.test  readout.number
1  CN1CCc2ccc(O)cc2C2(CCCc3ccccc32)C1 (stereo not drawn) [Example 29, hydrochloride]       D-1 receptor            0.74
2  COc1cc2c(cc1O)C1(CCCCc3ccccc31)CN(C)CC2 (stereo not drawn) [Example 32, hydrochloride]       D-1 receptor            0.56
3  Oc1cc2c(cc1Br)CCNCC21CCCc2ccccc21 (stereo not drawn) [Example 30, hydrochloride]       D-1 receptor            0.16
4  Oc1cc2c(cc1Br)CCNCC21CCc2ccccc21 (stereo not drawn) [Example 17, hydrochloride]       D-1 receptor            0.14
5  COc1cc2c(cc1O)C1(CCc3ccccc31)CN(C)CC2 (stereo not drawn) [Example 25, hydrochloride]       D-1 receptor            0.02
6  CN1CCc2cc(O)c(O)cc2C2(CCc3ccccc32)C1 (stereo not drawn) [Example 16]       D-1 receptor            0.09

* * *

Molecular target: dopamine D-2 receptor (Rattus norvegicus, UniProt P61169)
Construct: Homogenized rat caudate was the source of the D-2 receptors; from tissue; host or cells: rat caudate homogenate
Sequence (P61169 whole entry): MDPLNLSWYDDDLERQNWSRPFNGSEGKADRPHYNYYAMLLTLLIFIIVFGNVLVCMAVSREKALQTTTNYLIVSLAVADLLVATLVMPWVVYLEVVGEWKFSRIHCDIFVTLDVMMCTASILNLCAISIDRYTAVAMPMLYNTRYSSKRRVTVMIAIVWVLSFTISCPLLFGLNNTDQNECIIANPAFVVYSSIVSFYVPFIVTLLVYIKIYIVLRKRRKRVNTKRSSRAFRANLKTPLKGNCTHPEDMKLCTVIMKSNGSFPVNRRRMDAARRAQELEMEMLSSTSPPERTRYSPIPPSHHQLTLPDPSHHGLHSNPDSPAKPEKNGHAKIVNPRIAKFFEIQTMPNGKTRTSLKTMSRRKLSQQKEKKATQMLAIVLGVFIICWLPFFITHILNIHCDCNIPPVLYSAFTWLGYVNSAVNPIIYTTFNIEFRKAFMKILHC
Assay: D-2 receptor binding assay, competition with [^3 H]-spiperone in homogenized rat caudate
Conditions: rat caudate homogenate
pKi: −log10 of the molar value. Counter-ions that a name gives are not always drawn.
Quantity Name: pKi

> print(dat)
                                    compound  censoring.operator  readout.number
 1  CN1CCc2cc(Br)c(O)cc2C2(CCCCc3ccccc32)C1 (stereo not shown) [Example 35, hydrochloride]                   =            5.12
 2  COc1cc2c(cc1O)C1(CCc3ccccc31)CN(C)CC2 (stereo not shown) [Example 25, hydrochloride]                   =            5.02
 3  COc1cc2c(cc1O)C1(CCCc3ccccc31)CN(C)CC2 (stereo not shown) [Example 10, hydrochloride]                   =            3.25
 4  CN1CCc2cc(O)c(O)cc2C2(CCCc3ccccc32)C1 (stereo not shown) [Example 27, hydrobromide]                   <            4.00
 5  CN1CCc2ccc(O)cc2C2(CCCc3ccccc32)C1 (stereo not shown) [Example 29, hydrochloride]                   =            3.95
 6  CN1CCc2cc(Br)c(O)cc2C2(CCCc3ccccc32)C1 (stereo not shown) [Example 31, hydrochloride]                   =            5.00
 7  CN1CCc2cc(O)c(O)cc2C2(CCCCc3ccccc32)C1 (stereo not shown) [Example 34, hydrobromide]                   =            5.38
 8  CSc1cc2c(cc1O)C1(CCCc3ccccc31)CN(C)CC2 (stereo not shown) [Example 11, hydrochloride]                   =            5.17
 9  COc1cc2c(cc1O)C1(CCCc3ccccc31)CNCC2 (stereo not shown) [Example 9, hydrochloride]                   <            4.00
10  CN1CCc2cc(Br)c(O)cc2C2(CCc3ccccc32)C1 (stereo not shown) [Example 18, hydrochloride]                   =            5.23
11  COc1cc2c(cc1O)C1(CCOc3ccccc31)CN(C)CC2 (stereo not shown) [Example 135, hydrochloride]                   =            6.18
12  CN1CCc2ccc(O)cc2C2(CCOc3ccccc32)C1 (stereo not shown) [Example 136, hydrochloride]                   <            4.00
13  COc1cc2c(cc1O)C1(CCc3ccccc31)CNCC2 (stereo not shown) [Example 24, hydrochloride]                   <            4.00
14  CN1CCc2cc([N+](=O)[O-])c(O)cc2C2(CCc3ccccc32)C1 (stereo not shown) [Example 21, hydrochloride]                   =            4.41
15  Oc1cc2c(cc1O)C1(CCc3ccccc31)CNCC2 (stereo not shown) [Example 15, hydrobromide]                   <            4.00
16  CN1CCc2cc(O)c(O)cc2C2(CCc3ccccc32)C1 (stereo not shown) [Example 16]                   =            5.26
17  Oc1cc2c(cc1Br)CCNCC21CCc2ccccc21 (stereo not shown) [Example 17, hydrochloride]                   =            4.74
18  CN1CCc2cc(Br)c(O)cc2C2(CCOc3ccccc32)C1 (stereo not shown) [Example 137, hydrochloride]                   <            4.00
19  Oc1ccc2c(c1)C1(CCc3ccccc31)CNCC2 (stereo not shown) [Example 13, hydrobromide]                   <            4.00
20  COc1cc2c(cc1O)C1(CCCCc3ccccc31)CN(C)CC2 (stereo not shown) [Example 32, hydrochloride]                   =            3.95
21  Oc1cc2c(cc1Br)CCNCC21CCCc2ccccc21 (stereo not shown) [Example 30, hydrochloride]                   =            4.84
22  CN1CCc2ccc(O)cc2C2(CCc3ccccc32)C1 (stereo not shown) [Example 14, hydrobromide]                   <            4.00
23  Oc1cc2c(cc1O)C1(CCCc3ccccc31)CNCC2 (stereo not shown) [Example 26, hydrobromide]                   <            4.00
24  Oc1ccc2c(c1)C1(CCCc3ccccc31)CNCC2 (stereo not shown) [Example 28, hydrochloride]                   =            3.87
25  CN1CCc2ccc(O)cc2C2(CCCCc3ccccc32)C1 (stereo not shown) [Example 33, hydrochloride]                   =            5.06

From: patent US5158948A
